Reported MIC values for a set of compounds
Test system: Staphylococcus aureus
Test: Antibacterial activity against Staphylococcus aureus ATCC 29213 by CLSI protocol based assay
Type: functional
# output: bare number, implied unit µg/mL

# example entries with known answers
CCCCCCNC(=O)c1ccc[n+](CC2=C(C(=O)[O-])N3C(=O)[C@@H](NC(=O)/C(=N\OC)c4csc(N)n4)[C@H]3SC2)c1.O=C(O)C(F)(F)F : 2
CCCCCCCCCCNC(=O)c1cc[n+](CC2=C(C(=O)[O-])N3C(=O)[C@@H](NC(=O)/C(=N\OC)c4csc(N)n4)[C@H]3SC2)cc1.O=C(O)C(F)(F)F : 1
CCCCCCNC(=O)c1cc[n+](CC2=C(C(=O)[O-])N3C(=O)[C@@H](NC(=O)/C(=N\OC(C)(C)C(=O)O)c4csc(N)n4)[C@H]3SC2)cc1.O=C(O)C(F)(F)F : 32

Proceeding to the next compound to report its MIC.
Tell me reported MIC for `CCCCCCCCNC(=O)c1cc[n+](CC2=C(C(=O)O)N3C(=O)[C@@H](NC(=O)/C(=N\OC)c4csc(N)n4)[C@H]3SC2)cc1.O=C([O-])C(F)(F)F` , tested with Staphylococcus aureus. 1

---

Assay: Hemolytic activity in sheep RBC
Type: toxicity, cell-based, Ovis aries, Erythrocyte
Conditions: sheep red blood cells (erythrocytes)
Reported HC50 values for a set of compounds

# example entries with known answers
CN[C@H](CC(C)C)C(=O)N[C@H]1C(=O)N[C@@H](CC(N)=O)C(=O)N[C@H]2C(=O)N[C@H]3C(=O)N[C@H](C(=O)N[C@H](C(=O)O)c4cc(O)cc(O)c4-c4cc3ccc4O)[C@H](O)c3ccc(c(Cl)c3)Oc3cc2cc(c3O[C@@H]2O[C@H](CO)[C@@H](O)[C@H](O)[C@H]2O[C@H]2C[C@](C)(N)[C@H](O)[C@H](C)O2)Oc2ccc(cc2Cl)[C@H]1O [VANCOMYCIN] : > 1280 µg/mL
CCCCCCCCNC(=O)c1cc[n+](CC2=C(C(=O)O)N3C(=O)[C@@H](NC(=O)/C(=N\OC)c4csc(N)n4)[C@H]3SC2)cc1.O=C([O-])C(F)(F)F : > 1280 µg/mL

HC50 for `CCCCCCNC(=O)c1ccc[n+](CC2=C(C(=O)[O-])N3C(=O)[C@@H](NC(=O)/C(=N\OC(C)(C)C(=O)O)c4csc(N)n4)[C@H]3SC2)c1.O=C(O)C(F)(F)F` ? > 1280 µg/mL

---

System: Staphylococcus aureus
Test: Antibacterial activity against Staphylococcus aureus ATCC 29213 by CLSI protocol based assay
Format: functional
assay_readout: MIC (µg/mL)
# output: bare number, implied unit µg/mL

# example entries with known answers
CCCCCCCCNC(=O)c1cc[n+](CC2=C(C(=O)[O-])N3C(=O)[C@@H](NC(=O)/C(=N\OC(C)(C)C(=O)O)c4csc(N)n4)[C@H]3SC2)cc1.O=C(O)C(F)(F)F : 32
CCCCNC(=O)c1cc[n+](CC2=C(C(=O)[O-])N3C(=O)[C@@H](NC(=O)/C(=N\OC(C)(C)C(=O)O)c4csc(N)n4)[C@H]3SC2)cc1.O=C(O)C(F)(F)F : 64

Proceeding to the next compound to report its MIC.
MIC for `CCCCNC(=O)c1ccc[n+](CC2=C(C(=O)[O-])N3C(=O)[C@@H](NC(=O)/C(=N\OC(C)(C)C(=O)O)c4csc(N)n4)[C@H]3SC2)c1.O=C(O)C(F)(F)F` ? 32

---

Assay: Cytotoxicity against rat HBZY-1 cells assessed as viable cells at 128 microg/ml incubated for 48 hrs by CCK-8 assay relative to control
Assay type: toxicity, cell-based
Conditions: at 128 µg/mL, read-out: Activity
assay_readout: viability at 48 h, 128 microg/ml

viability at 48 h, 128 microg/ml for `CCCCCCCCNC(=O)c1ccc[n+](CC2=C(C(=O)[O-])N3C(=O)[C@@H](NC(=O)/C(=N\OC)c4csc(N)n4)[C@H]3SC2)c1.O=C(O)C(F)(F)F` ? 92.6%

---

Test system: Staphylococcus aureus
Assay: Antibacterial activity against Staphylococcus aureus ATCC 29213 by CLSI protocol based assay
Type: functional
assay_readout: MIC (µg/mL)
# output: bare number, implied unit µg/mL

# example entries with known answers
CCCCCCCCCCNC(=O)c1ccc[n+](CC2=C(C(=O)[O-])N3C(=O)[C@@H](NC(=O)/C(=N\OC)c4csc(N)n4)[C@H]3SC2)c1.O=C(O)C(F)(F)F : 0.5
CCCCCCNC(=O)c1ccc[n+](CC2=C(C(=O)[O-])N3C(=O)[C@@H](NC(=O)/C(=N\OC(C)(C)C(=O)O)c4csc(N)n4)[C@H]3SC2)c1.O=C(O)C(F)(F)F : 32
CCCCCCCCCCNC(=O)c1ccc[n+](CC2=C(C(=O)[O-])N3C(=O)[C@@H](NC(=O)/C(=N\OC(C)(C)C(=O)O)c4csc(N)n4)[C@H]3SC2)c1.O=C(O)C(F)(F)F : 32
CCCCCCCCCCNC(=O)c1cc[n+](CC2=C(C(=O)[O-])N3C(=O)[C@@H](NC(=O)/C(=N\OC(C)(C)C(=O)O)c4csc(N)n4)[C@H]3SC2)cc1.O=C(O)C(F)(F)F : 32
CO/N=C(\C(=O)N[C@@H]1C(=O)N2C(C(=O)[O-])=C(C[n+]3ccccc3)CS[C@H]12)c1csc(N)n1.O=C(O)C(F)(F)F : 1
CO/N=C(\C(=O)N[C@@H]1C(=O)N2C(C(=O)[O-])=C(COC(C)=O)CS[C@H]12)c1csc(N)n1.[Na+] [CEFOTAXIME SODIUM] : 1
CCCCNC(=O)c1ccc[n+](CC2=C(C(=O)[O-])N3C(=O)[C@@H](NC(=O)/C(=N\OC)c4csc(N)n4)[C@H]3SC2)c1.O=C(O)C(F)(F)F : 2
CC(C)(O/N=C(\C(=O)N[C@@H]1C(=O)N2C(C(=O)[O-])=C(C[n+]3ccccc3)CS[C@H]12)c1csc(N)n1)C(=O)O : 16
CCCCNC(=O)c1cc[n+](CC2=C(C(=O)[O-])N3C(=O)[C@@H](NC(=O)/C(=N\OC)c4csc(N)n4)[C@H]3SC2)cc1.O=C(O)C(F)(F)F : 4
CCCCCCNC(=O)c1cc[n+](CC2=C(C(=O)[O-])N3C(=O)[C@@H](NC(=O)/C(=N\OC)c4csc(N)n4)[C@H]3SC2)cc1.O=C(O)C(F)(F)F : 2

MIC for `CCCCCCCCNC(=O)c1ccc[n+](CC2=C(C(=O)[O-])N3C(=O)[C@@H](NC(=O)/C(=N\OC(C)(C)C(=O)O)c4csc(N)n4)[C@H]3SC2)c1.O=C(O)C(F)(F)F` ? 32

Can you check `CCCCCCCCNC(=O)c1ccc[n+](CC2=C(C(=O)[O-])N3C(=O)[C@@H](NC(=O)/C(=N\OC)c4csc(N)n4)[C@H]3SC2)c1.O=C(O)C(F)(F)F` next? 0.5

---

Test system: Stenotrophomonas maltophilia
Assay: Antibacterial activity against Stenotrophomonas maltophilia ATCC 17808 by CLSI protocol based assay
Format: functional
Reported log10 MIC values for a set of compounds
Use the decimal logarithm of MIC (µg/mL).

# example entries with known answers
CCCCCCNC(=O)c1ccc[n+](CC2=C(C(=O)[O-])N3C(=O)[C@@H](NC(=O)/C(=N\OC(C)(C)C(=O)O)c4csc(N)n4)[C@H]3SC2)c1.O=C(O)C(F)(F)F : 0.60
CCCCCCCCCCNC(=O)c1cc[n+](CC2=C(C(=O)[O-])N3C(=O)[C@@H](NC(=O)/C(=N\OC)c4csc(N)n4)[C@H]3SC2)cc1.O=C(O)C(F)(F)F : 0.90
CC(C)(O/N=C(\C(=O)N[C@@H]1C(=O)N2C(C(=O)[O-])=C(C[n+]3ccccc3)CS[C@H]12)c1csc(N)n1)C(=O)O [CEFTAZIDIME] : -1.20

log10 MIC for `CCCCNC(=O)c1cc[n+](CC2=C(C(=O)[O-])N3C(=O)[C@@H](NC(=O)/C(=N\OC)c4csc(N)n4)[C@H]3SC2)cc1.O=C(O)C(F)(F)F` ? 0.00

Can you check `CCCCCCCCNC(=O)c1cc[n+](CC2=C(C(=O)O)N3C(=O)[C@@H](NC(=O)/C(=N\OC)c4csc(N)n4)[C@H]3SC2)cc1.O=C([O-])C(F)(F)F` next? 0.60

Can you check `CCCCCCNC(=O)c1cc[n+](CC2=C(C(=O)[O-])N3C(=O)[C@@H](NC(=O)/C(=N\OC)c4csc(N)n4)[C@H]3SC2)cc1.O=C(O)C(F)(F)F` next? 0.30

Can you check `CO/N=C(\C(=O)N[C@@H]1C(=O)N2C(C(=O)[O-])=C(C[n+]3ccccc3)CS[C@H]12)c1csc(N)n1.O=C(O)C(F)(F)F` next? -1.20

Can you check `CCCCCCCCNC(=O)c1ccc[n+](CC2=C(C(=O)[O-])N3C(=O)[C@@H](NC(=O)/C(=N\OC)c4csc(N)n4)[C@H]3SC2)c1.O=C(O)C(F)(F)F` next? 0.90

Can you check `CCCCNC(=O)c1cc[n+](CC2=C(C(=O)[O-])N3C(=O)[C@@H](NC(=O)/C(=N\OC(C)(C)C(=O)O)c4csc(N)n4)[C@H]3SC2)cc1.O=C(O)C(F)(F)F` next? 0.00
